Can you tell me GI50 for the items I'm about to list?
System: PC-3
PROCEDURE_DETAILS: NCI tumour cell line growth inhibition, 48 h
Calls of active or inactive are those of the source. Cut-off read from the data, not from the text of the source: active = GI50 up to about 1.1 µM and inactive = higher.

Below, 2 molecules whose answers are already recorded.
N=C(N)Nc1ccc(CC(N)C(=O)O)cc1 (stereo not given) :: > 12.5 µM (inactive)
CCOC(=O)c1ccc(NC(=O)O/N=C(/Cl)CC)cc1 :: 18.8 µM (inactive)

Could you tell me GI50 for each of these molecules? They are listed below.
1. CC(=O)SC(C[N+](=O)[O-])c1ccc2c(c1)OCO2 (stereo not given)
2. CC1(C)N=C(/C(C#N)=[N+](/[O-])C(=O)c2ccccc2)C(C)(C)N1O
3. CC(=O)O[C@H]1C(=O)[C@@]2(C)[C@H]([C@H](OC(=O)c3ccncc3)[C@]3(O)C[C@H](OC(=O)[C@H](O)[C@@H](NC(=O)c4ccccc4)c4ccccc4)C(C)=C1C3(C)C)[C@]1(OC(C)=O)CO[C@@H]1C[C@@H]2O

12.7 µM (inactive)
> 100 µM (inactive)
6.56 µM (inactive)

Could you tell me GI50 for each of these molecules? They are listed below.
1. C[C@]12CC(c3ccccc3O1)C(C(=O)Nc1nc(C34CC5CC(CC(C5)C3)C4)cs1)C(=O)N2 (stereo not given in full)
2. CC(C)(Br)C(=O)N1CCN(C(c2ccccc2)c2ccccc2)CC1
3. C[N+]1(CCN[N+]2(C)CCCCC2)CCc2ccccc2C1 (stereo not given)
4. C[N+]12CCN(c3ccccc31)c1ccccc12.[O-][Cl+3]([O-])([O-])[O-]
5. NCC[Se][Se]CCN

1: > 100 µM (inactive); 2: 50.1 µM (inactive); 3: > 100 µM (inactive); 4: > 10 µM (inactive); 5: 10.9 µM (inactive)

###

Tested on: CCRF-CEM
PROCEDURE_DETAILS: NCI tumour cell line growth inhibition, 48 h
Activity calls are given as the source filed them. No stated cut-off is given here; in the data, active = GI50 up to about 1.1 µM and inactive = higher.
Bench note: report the call from true for active, false for inactive

These recorded examples may help you get a feel for the data.
CSc1nc(NC2OC(COC(C)=O)C(OC(C)=O)C(OC(C)=O)C2OC(C)=O)c2c(n1)OCC2=O (centres undefined) :: false
O=C(Cn1cc(-c2ccccc2)nn1)NC1CCCCC1 :: false
Cc1ccc(C(=O)Nc2ccc(CP(=O)(O)O)cc2)cc1NC(=O)Nc1cc(C(=O)Nc2ccc(CP(=O)(O)O)cc2)ccc1C :: false
CCOC(=O)CP(=S)(S)c1ccccc1 (centres undefined) :: false
COc1ccc(NC(=S)Nc2c(C)n(C)n(-c3ccccc3)c2=O)cc1 :: false

What is the recorded call for this molecule in the test? CSc1c(C#N)c(S)n(-c2ccc(Cl)cc2)c(=O)c1C#N
false

What is the recorded call for this molecule in the test? Cn1c(=O)c(C(=O)Nc2nc(C34CC5CC(CC(C5)C3)C4)cs2)c(O)c2ccccc21
false

What is the recorded call for this molecule in the test? CSc1ccsc1-c1sc(-c2cc(SC)c(-c3sc(-c4cc(SC)c(-c5sccc5SC)s4)cc3SC)s2)cc1SC
false

What is the recorded call for this molecule in the test? COC1CC(CC2CCC(C)C(C(C)C(=O)O)O2)OC2(OC(C)(C3CCC(C)(C4OC(C5OC(O)(CO)C(C)CC5C)CC4C)O3)CC2C)C1C (centres undefined)
true

###

Tested on: SF-295
PROCEDURE_DETAILS: NCI tumour cell line growth inhibition, 48 h
Calls of active or inactive are those of the source. No stated cut-off is given here; in the data, active = GI50 up to about 1.1 µM and inactive = higher.
Bench note: report the call from active, inactive

What is the recorded call for this molecule in the test? COc1ccc(C2=C(N)c3cc(OC)ccc3C2=O)cc1
inactive

What is the recorded call for this molecule in the test? O=[N+]([O-])c1cccc2nc3ccccc3c(NCCN(CCO)CCO)c12
active

What is the recorded call for this molecule in the test? CCCCS(=O)(=O)CCC(N)C(=O)O (stereo unspecified)
inactive

What is the recorded call for this molecule in the test? CCOc1ccc(N/C(=C(/C(Cl)=C(/Cl)NCCN)[N+](=O)[O-])n2nnc3ccccc32)cc1
inactive

What is the recorded call for this molecule in the test? C#CCCCCC#Cc1ccccc1C(=O)OC
inactive

What is the recorded call for this molecule in the test? COC(=O)C(Cc1c(-c2[nH]c3ccccc3c2CC(NC(C)=O)C(=O)OC)[nH]c2ccccc12)NC(C)=O (stereo unspecified)
inactive

What is the recorded call for this molecule in the test? COC1CC(n2ccc(=O)[nH]c2=O)OC1CO (stereo unspecified)
inactive

What is the recorded call for this molecule in the test? CSc1nc(NC2OC(COC(C)=O)C(OC(C)=O)C(OC(C)=O)C2OC(C)=O)c2c(n1)OCC2=O (stereo unspecified)
inactive

What is the recorded call for this molecule in the test? C[n+]1c(-c2ccccc2)cc2/c(=C\c3ccc([N+](=O)[O-])cc3)c3ccccc3n21
inactive

What is the recorded call for this molecule in the test? Cc1cn(C2CC(n3cc(Cn4ccc(=O)[nH]c4=O)nn3)C(CO)O2)c(=O)[nH]c1=O (stereo unspecified)
inactive

What is the recorded call for this molecule in the test? Cc1coc2c1C[C@@]1(C)[C@H](CCC[C@@H]1C)[C@H]2O
inactive

What is the recorded call for this molecule in the test? S=C(NN=C1NCCCCN1)Nc1ccccc1
inactive

What is the recorded call for this molecule in the test? N#CC(NNC(=O)Cc1ccccc1)c1c(O)ccc2ccccc12 (stereo unspecified)
inactive

What is the recorded call for this molecule in the test? Nc1cc2c3c(cccc3c1)C(=O)N(c1ccc(OCCN3CCCCC3)cc1)C2=O
inactive

What is the recorded call for this molecule in the test? C=C1C(=O)O[C@H]2[C@@H]3O[C@@](C)(CC/C=C(\C)CCC[C@@H]2C)[C@H](O)C[C@@H]13
inactive

What is the recorded call for this molecule in the test? CC(C)CCNC(=O)c1ccc(CNC(=O)/C=C/c2csc(-c3ccccc3)n2)cc1
inactive

What is the recorded call for this molecule in the test? N#C/C(=C\n1ccc(=O)[nH]c1=S)C(N)=O
inactive

What is the recorded call for this molecule in the test? O=C1N=C2N=C(c3ccc(Cl)cc3)N(c3ccc(Cl)cc3)N2Sc2ccccc21
inactive

What is the recorded call for this molecule in the test? Cc1ccc2c(c1)C(C1Cc3c(C)cccc3C1=O)OC2=O (stereo unspecified)
inactive

What is the recorded call for this molecule in the test? O=C(CSCC(=O)N/N=C\c1ccccc1F)N/N=C\c1ccccc1F
inactive

What is the recorded call for this molecule in the test? COc1ccc(-c2cc(O)c3cc4c(cc3n2)OCO4)cc1
inactive

###

Can you tell me GI50 for the items I'm about to list?
Test system: HCT-15
One number for each entry, in µM.

C/C(=N\Nc1nc2ccccc2n1C)c1cnccn1 :: 0.0438
S=C(NN=C1NCCCCN1)Nc1ccccc1 :: 37.4
CC(=O)Oc1ccc2c(c1)c1c(=O)oc(C)nc1n2Cc1ccccc1 :: 26.7
COC1CC2CCC(C)[C@](O)(O2)C(=O)C(=O)N2CCCCC2C(=O)OC(C(C)CC2CCC(O)C(OC)C2)CC(=O)C(C)C=C(C)C(OC(=O)CN(C)C)C(OC)C(=O)C(C)CC(C)/C=C/C=C/C=C\1C (stereo partly drawn) :: 10.4
COc1ccc(N2C(=O)/C(=C\c3cc(OC)c(OC)c(OC)c3)SC2c2ccccc2)cc1 (stereo not drawn) :: 58.2

Could you tell me GI50 for each of these compounds? They are listed below.
1. Cc1ccccc1OC(C)C(=O)NN1C(=O)CC(=O)N(c2ccc(Cl)cc2)C1=S (stereo not drawn)
2. COc1ccc(/C=C2\CCC(CN(C)C)C2=O)cc1OC (stereo not drawn)
3. N#CC(NNC(=O)Cc1ccccc1)c1c(O)ccc2ccccc12 (stereo not drawn)
4. CC[n+]1cnc(N)c2c(-c3ccc(Cl)cc3)cn(-c3ccc(C)cc3)c21
5. Cc1ccc(/C=C/C(=N/NC(=O)N/N=C(/C=C/c2ccc(C)cc2)C(C)(C)CN2CCCCC2)C(C)(C)CN2CCCCC2)cc1
6. CC(=O)Nc1ccc(-c2nnc(SCC(=O)Nc3ccc(Cl)cc3Cl)o2)cc1

[30.1, 2.9, 2.7, 14.9, 1.57, 38.5]

Could you tell me GI50 for each of these compounds? They are listed below.
1. O=C(CSc1nc2ccc(I)cc2c(=O)n1Cc1ccccc1)NN1C(=O)CSC1c1ccccc1 (stereo not drawn)
2. CCCCc1ccc(Nc2nc(Cl)c3ncn(COCCOC(C)=O)c3n2)cc1
3. Oc1ccccc1/C=N/c1ccc(Oc2ccc(Cl)cc2)c(Cl)c1
4. COc1cc2c(cc1OCCCCCCCCCCN1C(=O)c3cccc4cccc(c34)C1=O)N=C[C@@H]1CCCN1C2=O
5. O=[N+]([O-])c1cccc2nc3ccccc3c(NCCN(CCO)CCO)c12

1. 14.1
2. 16.7
3. 16.3
4. 4.8
5. 0.0108

Could you tell me GI50 for each of these compounds? They are listed below.
1. Cc1nn(-c2cc(Cl)ccc2[N+](=O)[O-])c(C)c1Cl
2. Nc1nc(Cl)cc(NC23CC4CC(CC(C4)C2)C3)n1
3. O=C1Nc2ccccc2/C1=N/Nc1nc(-c2ccc(Br)cc2)cs1

[40.6, 40.6, 19.4]
